# Test system: E. coli BW25113 ΔtolC growth inhibition, OD615
# experiment: growth inhibitors of E. coli tolC mutant, dose response, strain BW25113 ΔtolC::kan (AID 617);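 further: growth read after 20 h at 37 °C with compound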
readout: pIC50
Lab note — pIC50 values are minus log10 of concentrations in M.

compound=O=c1c2ccccc2n(Cc2ccc(F)cc2)c(=O)n1C1CCCC1 readout=pIC50 recordedvalue=5.03
compound=O=C(c1cc2ccccc2o1)N1CCN(c2ccccc2Cl)CC1 readout=pIC50 recordedvalue=5.00
compound="CC1CCc2cc(F)ccc2N1C(=O)c1cc2nc(-c3ccco3)cc(C(F)(F)F)n2n1 (stereo unspecified)" readout=pIC50 recordedvalue=4.95

*Q* E. coli BW25113 ΔtolC growth inhibition, OD615 / pIC50 / CC(C)N1CCC2(CC1)N=C(c1ccc3c(c1)OCO3)CC(c1cc(Cl)ccc1O)N2 (stereo unspecified) : value?
*A* 5.01

*Q* E. coli BW25113 ΔtolC growth inhibition, OD615 / pIC50 / COCc1cc(C)nc2sc3c(=O)oc(C)nc3c12 : value?
*A* 4.02

*Q* E. coli BW25113 ΔtolC growth inhibition, OD615 / pIC50 / Cn1c(=O)n(Cc2ccccc2)c(=O)c2c1nc1n2CCCN1Cc1ccccc1 : value?
*A* 4.37

*Q* E. coli BW25113 ΔtolC growth inhibition, OD615 / pIC50 / Cc1cc(S(=O)(=O)N2CCN(c3ccccc3C)CC2)ccc1F : value?
*A* 4.84

*Q* E. coli BW25113 ΔtolC growth inhibition, OD615 / pIC50 / Cc1cccc(NC(=O)c2cc(NC(=O)C3CCCCC3C(=O)O)ccc2N2CCCCC2)c1 (stereo unspecified) : value?
*A* 5.21

*Q* E. coli BW25113 ΔtolC growth inhibition, OD615 / pIC50 / Cc1cccnc1Nc1nc(-c2ccc(O)cc2O)cs1 : value?
*A* 4.75

*Q* E. coli BW25113 ΔtolC growth inhibition, OD615 / pIC50 / COc1cc(NS(=O)(=O)c2ccc(NC(=O)COc3ccccc3Cl)cc2)nc(OC)n1 : value?
*A* 4.61

*Q* E. coli BW25113 ΔtolC growth inhibition, OD615 / pIC50 / O=C(Cc1ccccc1F)Nc1nc(-c2cccs2)cs1 : value?
*A* 5.16
